Origin of the recorded values: patent US9371374

# TEST_TARGET: T1, HCV Core1-169 (HCV-1, UniProt P26664 1-169)
# T1 construct: also called Solid Phase HCV Core
# T1 sequence: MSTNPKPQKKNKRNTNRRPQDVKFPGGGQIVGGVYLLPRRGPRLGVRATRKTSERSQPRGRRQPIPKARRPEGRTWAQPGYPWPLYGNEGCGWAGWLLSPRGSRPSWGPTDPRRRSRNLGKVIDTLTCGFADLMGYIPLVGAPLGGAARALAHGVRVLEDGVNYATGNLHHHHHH
# RUN_DESCRIPTION: sandwich EIA, capture 208A-557
PROPERTY_NAME: OD492 (OD)
State just the number; it will be interpreted in OD.

Task: Param item = HCV 208A-741 (antibody, V domains shown) VH: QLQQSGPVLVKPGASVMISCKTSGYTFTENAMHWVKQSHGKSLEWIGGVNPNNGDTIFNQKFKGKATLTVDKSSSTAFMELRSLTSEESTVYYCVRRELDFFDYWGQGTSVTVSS VL: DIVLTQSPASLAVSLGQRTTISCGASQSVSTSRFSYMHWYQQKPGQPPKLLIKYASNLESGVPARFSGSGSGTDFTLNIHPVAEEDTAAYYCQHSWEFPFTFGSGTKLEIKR ; retrieve measured OD492.
Result: 0.4
